- Tested on: esterase derived from Ideonella sp. 0-0013 strain
- assayName: Inhibition, activation and stabilization of the esterase
- Type: biochemical
recordedEndpoint: Inhibition, activation, and stabilization (effect on the esterase)

Previously resolved entries follow.
# `[K+]` with esterase derived from Ideonella sp. 0-0013 strain: Inhibition, activation, and stabilization (effect on the esterase) is Activated

Form: item [Na+] [sodium ion] ; test system esterase derived from Ideonella sp. 0-0013 strain; Inhibition, activation, and stabilization (effect on the esterase): Activated

Query `[Sr+2]` on esterase derived from Ideonella sp. 0-0013 strain; Inhibition, activation, and stabilization (effect on the esterase) returned: inhibited

Reading of Inhibition, activation, and stabilization (effect on the esterase) for `[Fe+2]` with esterase derived from Ideonella sp. 0-0013 strain: inhibited

Please look at the following compound next.
Short answer on esterase derived from Ideonella sp. 0-0013 strain for CCCCCCCCCCCCCCCC(=O)OC [Methyl palmitate, methyl palmitate] , Inhibition, activation, and stabilization (effect on the esterase): inhibited
